Here we gather pIC50 data for Beta-secretase 1 (Homo sapiens, UniProt P56817) reported by several publications.
pIC50: −log10 of the molar value.
measured_property: pIC50

[I] COc1ccc([C@H](Cc2ccc(C(F)(F)F)cc2)c2nc(N)[nH]c2C(O)c2ccccc2)cc1 (stereo partly drawn)
[II] [2H]C([2H])([2H])O[C@@H]1CC[C@]2(Cc3ccc(-c4cc(Cl)cnc4F)cc3[C@]23N=C(N)OC3([2H])[2H])C[C@H]1C
[III] [2H]C1([2H])OC(N)=N[C@]12c1cc(-c3cncc(C#CC)c3)ccc1C[C@]21CC[C@@H](OC)[C@H](C)C1
Q: Your job: order these 3 records by pIC50, ascending. Use the labels to give the requested order.
Result: I, II, III

[a] COCCC1Cc2ccc(-c3cc(C#N)cc(OC)c3)cc2C12COC(N)=N2 (stereo not drawn)
[b] [2H]C([2H])([2H])O[C@H]1CC[C@@]2(Cc3ccc(-c4cncc(C#N)c4)cc3[C@]23N=C(N)OC3([2H])[2H])C[C@@H]1C
[c] CC(=O)c1cc2cc(c1)C(=O)N[C@H]([C@H](O)CNC1(c3cccc(C(C)C)c3)CC1)Cc1cccc(c1)CCCCO2
[d] NC1=NC2(c3ccccc3O1)c1cc(-c3cncnc3)ccc1Oc1cnc(-c3ccnc(F)c3)cc12 (stereo not drawn)
Q: Put the items in order so that reported pIC50 rises from first to last. Use the labels to give the requested order.
Result: a, c, b, d
(a: 5.38, c: 6.60, b: 7.89, d: 8.57)

[I] NC1=N[C@]2(CCS1)c1cc(-c3cccnc3F)ccc1Oc1c(F)cc(C3=CCCOC3)cc12
[II] NC1=N[C@@]2(CCO1)c1cc(-c3cccnc3F)ccc1Oc1c2cc(-c2ccnc(F)c2)nc1F
Q: Which of these two has the smaller recorded pIC50: I or II ? Write down the label attached to your selection.
Result: I
(I: 6.34, II: 9.30)

[P] NC1=N[C@@]2(c3ccc(F)cc3F)CO[C@@H]([C@@H]3CCCO3)C[C@H]2CS1
[Q] CC#Cc1cncc(-c2ccc3c(c2)[C@@]2(COCC(N)=N2)c2cc(C4=CCCOC4)cc(F)c2O3)c1
[R] CCOc1ccc([C@H]2C[C@H]3CSC(N)=N[C@@]3(c3ccc(F)cc3F)CO2)cc1
[S] COc1cc(F)c2c(c1)[C@]1(CCOC(N)=N1)c1cc(-c3cccnc3F)ccc1O2
Q: Put the items in order so that reported pIC50 rises from first to last. Use the labels to give the requested order.
Result: P, S, R, Q

[P] Cc1nc(C(=O)Nc2ccc3c(c2)[C@@]2(CCOC(N)=N2)c2cc(-c4cncc(F)c4)nc(F)c2O3)cs1
[Q] NC1=NC2(CCS1)c1cc(-c3cncnc3)ccc1Oc1ccc(-c3cncnc3)cc12
Q: I need your help: which of the pair P , Q has higher pIC50? Write down the label attached to your selection.
Result: P
(P: 9.22, Q: 6.59)

[1] [2H]C1([2H])OC(N)=N[C@]12c1cc(-c3cncc(C(F)(F)F)c3)ccc1C[C@]21CC[C@@H](OC)[C@H](C)C1
[2] NC1=N[C@@]2(CCO1)c1cc(NC(=O)c3ccc(F)cn3)ccc1Oc1c2cc(-c2ccnc(F)c2)nc1F
Q: Which of these two has the smaller recorded pIC50: 1 or 2 ? Write down the label attached to your selection.
Result: 1

[A] COc1cnc2c(Nc3ccc4c(c3)[C@@]3(CCSC(N)=N3)c3cc(C5=CCCOC5)nc(F)c3O4)nccc2c1
[B] NC1=N[C@]2(c3cc(-c4cccnc4F)ccc3Oc3cnc(-c4cccnc4F)cc32)c2ccccc21 (single isomer, unassigned)
Q: I need your help: which of the pair A , B has higher pIC50? Write down the label attached to your selection.
Result: A
(A: 8.37, B: 6.05)

[A] [2H]C([2H])([2H])O[C@H]1CC[C@@]2(Cc3ccc(-c4cnccc4F)cc3[C@]23N=C(N)OC3([2H])[2H])C[C@@H]1C
[B] CC1(COc2cc(F)c3c(c2)[C@]2(CCSC(N)=N2)c2cc(-c4cccnc4F)ccc2O3)COC1
Q: I need your help: which of the pair A , B has higher pIC50? Write down the label attached to your selection.
Result: B
(B: 8.60, A: 7.11)
